B1: TPRG1 (parent)
chain: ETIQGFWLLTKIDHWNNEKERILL

# Variants of: B1
# protocolDescription: protein stability index of a GFP-peptide fusion (GPS, HEK-293T) (PSI 1-6); higher = more stable;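 also: lentivirally expressed fusions sorted by FACS into six bins by GFP to DsRed ratio, PSI derived from sequencing read proportions per bin multiplied by bin number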
# runParameters: c terminus: a fixed tail appended
endpoint: protein stability index

Enquiry: Report protein stability index for ETIQGFWLLTKIDHWINEKERILL please.
Return: 3.07

Enquiry: Note, next up: ETIQGFWLLTKIDHWNNEKERITL
Return: 2.42

Enquiry: Note, next up: ETIQGCWLLTKIDHWNNEKERILL
Return: 3.16

Enquiry: Note, next up: ETIQGFDLLTKIDHWNNEKERILL
Return: 2.25

Enquiry: Note, next up: ETIQGFWLLTKIDHWNNEKERILN
Return: 3.07

Enquiry: Note, next up: ETIQGFWLLTKIDHWNNEKLRILL
Return: 3.61

Enquiry: Note, next up: ETIQGFWLLTLIDHWNNEKERILL
Return: 1.49

Enquiry: Note, next up: ETIQGFWLLTKIDHWNNEKMRILL
Return: 3.33

Enquiry: Note, next up: ETIQLFWLLTKIDHWNNEKERILL
Return: 1.38

Enquiry: Note, next up: ETIQGFWLLTKIDHWNNEKERQLL
Return: 3.38

Enquiry: Note, next up: ETIQGFNLLTKIDHWNNEKERILL
Return: 2.18

Enquiry: Note, next up: ETIQGFKLLTKIDHWNNEKERILL
Return: 1.86

Enquiry: Note, next up: ETIQGFWLLTKCDHWNNEKERILL
Return: 2.08

Enquiry: Note, next up: ETIQGFWLITKIDHWNNEKERILL
Return: 3

Enquiry: Note, next up: ETIQGFWLLTKIDLWNNEKERILL
Return: 2.25

Enquiry: Note, next up: ETIQGFWLLTKIDHWNNSKERILL
Return: 3.54

Enquiry: Note, next up: ETIQGVWLLTKIDHWNNEKERILL
Return: 2.36

Enquiry: Note, next up: ETIQGFWLLTKIDHWNNEKERNLL
Return: 2.6

Enquiry: Note, next up: ETIQGFWLLTKIDHWNCEKERILL
Return: 2.54

Enquiry: Note, next up: ETIQGFWLLTKIDHWKNEKERILL
Return: 4.29

Enquiry: Note, next up: ETIQGFWLLTKIDHWNNERERILL
Return: 4.12

Enquiry: Note, next up: ETIQGFWLLTKIDHWNNEKNRILL
Return: 2.53

Enquiry: Note, next up: ETIQGFWLLTKADHWNNEKERILL
Return: 3.59

Enquiry: Note, next up: ETIQGNWLLTKIDHWNNEKERILL
Return: 2.11

Enquiry: Note, next up: ETIQGFWLLTKIDSWNNEKERILL
Return: 2.41

Enquiry: Note, next up: ETITGFWLLTKIDHWNNEKERILL
Return: 1.88

Enquiry: Note, next up: ETIQGFWLLTKIDHWNNNKERILL
Return: 2.14

Enquiry: Note, next up: ETIQGFTLLTKIDHWNNEKERILL
Return: 1.51

Enquiry: Note, next up: ETIQGFWLLDKIDHWNNEKERILL
Return: 1.8

Enquiry: Note, next up: ETRQGFWLLTKIDHWNNEKERILL
Return: 1.88

Enquiry: Note, next up: ETIQGFWLLTAIDHWNNEKERILL
Return: 1.85

Enquiry: Note, next up: ETIQGFWLLTKHDHWNNEKERILL
Return: 1.9

Enquiry: Note, next up: ETIQGFWPLTKIDHWNNEKERILL
Return: 1.43

Enquiry: Note, next up: ETIQGFWLLTKIDHWNNIKERILL
Return: 1.56

Enquiry: Note, next up: ETYQGFWLLTKIDHWNNEKERILL
Return: 2.55

Enquiry: Note, next up: ETIQGFWLLTKIDHWNNEKEDILL
Return: 1.3

Enquiry: Note, next up: ETIQGFWSLTKIDHWNNEKERILL
Return: 1.56

Enquiry: Note, next up: ETIQGMWLLTKIDHWNNEKERILL
Return: 1.48

Enquiry: Note, next up: ETDQGFWLLTKIDHWNNEKERILL
Return: 1.39

Enquiry: Note, next up: ETIQGFWLLTKIDHWNNVKERILL
Return: 3.83

Enquiry: Note, next up: VTIQGFWLLTKIDHWNNEKERILL
Return: 4.74

Enquiry: Note, next up: ETIQGFWLLTKINHWNNEKERILL
Return: 3.41

Enquiry: Note, next up: ETIQGFWLLTKIDHWNNEKERIQL
Return: 1.78

Enquiry: Note, next up: ETIQGFWLLTKIKHWNNEKERILL
Return: 3.06

Enquiry: Note, next up: ETIQGFWLHTKIDHWNNEKERILL
Return: 1.87

Enquiry: Note, next up: ETIQKFWLLTKIDHWNNEKERILL
Return: 2.04

Enquiry: Note, next up: ETIQIFWLLTKIDHWNNEKERILL
Return: 1.69

Enquiry: Note, next up: ETIQGFWLLHKIDHWNNEKERILL
Return: 2.31

Enquiry: Note, next up: ETIQGFWLKTKIDHWNNEKERILL
Return: 1.54

Enquiry: Note, next up: ETIQGFWLLTKIDHWFNEKERILL
Return: 2.65

Enquiry: Note, next up: ETIQGFWLLTKIDHWNNEKECILL
Return: 3.09

Enquiry: Note, next up: ETIQGFWLLTKIDHWNNEKERIML
Return: 3.45

Enquiry: Note, next up: ETIQGFWLLTKIDHWNNEKERMLL
Return: 3.17

Enquiry: Note, next up: ETIQGFWLLTKIDHQNNEKERILL
Return: 2.09

Enquiry: Note, next up: ETIQGFWLLTKIDHWNNEKERELL
Return: 2.16

Enquiry: Note, next up: ETIPGFWLLTKIDHWNNEKERILL
Return: 3.54

Enquiry: Note, next up: ETIQGFWLLTKIDHWNNETERILL
Return: 1.78

Enquiry: Note, next up: ETIQGFWLLTKIDHWENEKERILL
Return: 1.92

Enquiry: Note, next up: ETIQGFWLLTKIDHWNNEKERILV
Return: 2.5

Enquiry: Note, next up: STIQGFWLLTKIDHWNNEKERILL
Return: 2.85

Enquiry: Note, next up: DTIQGFWLLTKIDHWNNEKERILL
Return: 2.8

Enquiry: Note, next up: ETIQGFWVLTKIDHWNNEKERILL
Return: 2.27

Enquiry: Note, next up: ETIQGFMLLTKIDHWNNEKERILL
Return: 3.58

Enquiry: Note, next up: ETIQQFWLLTKIDHWNNEKERILL
Return: 1.98

Enquiry: Note, next up: ETIQGFWLCTKIDHWNNEKERILL
Return: 2.35

Enquiry: Note, next up: ECIQGFWLLTKIDHWNNEKERILL
Return: 1.55

Enquiry: Note, next up: ETIQYFWLLTKIDHWNNEKERILL
Return: 2.95

Enquiry: Note, next up: ETIQGFWLLTKIDHWNFEKERILL
Return: 2.36

Enquiry: Note, next up: ETIQGFWWLTKIDHWNNEKERILL
Return: 1.43

Enquiry: Note, next up: HTIQGFWLLTKIDHWNNEKERILL
Return: 2.48

Enquiry: Note, next up: ETIQGFWLLTWIDHWNNEKERILL
Return: 2.02

Enquiry: Note, next up: ETIQGFWLLTKIDHWNNEGERILL
Return: 1.76

Enquiry: Note, next up: ETIQGFWLLTYIDHWNNEKERILL
Return: 4.47
